# System: SK-N-MC
# test.details: LD50 to tumor cells of various preparations of PI
# Assay type: cell-based
# condition.set: Homo sapiens, 3 hours
recorded.metric: pIC50
Answers are plain numbers, as −log10 of the molar value.

Provide pIC50 value for the following compound: CCCCC/C=C\C/C=C\CCCCCCC[14C](=O)O[C@H](COC(=O)CCCCCCCCCCCCCCC)COP(=O)(O)O[C@@H]1[C@H](O)[C@H](O)[C@@H](O)[C@H](O)[C@H]1O [([^14 C]linoleoyl)PI] 4.41

* * *

# Tested on: HT-144
# test.details: LD50 to tumor cells of various preparations of PI
# Type: cell-based
# condition.set: Homo sapiens, 3 hours
recorded.metric: pIC50
Give bare numbers, as −log10 of the molar value.

Provide pIC50 value for the following compound: CCCCC/C=C\C/C=C\CCCCCCC[14C](=O)O[C@H](COC(=O)CCCCCCCCCCCCCCC)COP(=O)(O)O[C@@H]1[C@H](O)[C@H](O)[C@@H](O)[C@H](O)[C@H]1O [([^14 C]linoleoyl)PI] 4.60
